Ref: patent US20230331848A1

- experimentalTarget: T1, human PD-1-his protein (Cat#:PD1-H5221, Acro biosystems Inc.) (human, UniProt Q15116 25-167)
- T1 construct: not shown: his tag
- T1 sequence (Q15116 25-167 limits assumed): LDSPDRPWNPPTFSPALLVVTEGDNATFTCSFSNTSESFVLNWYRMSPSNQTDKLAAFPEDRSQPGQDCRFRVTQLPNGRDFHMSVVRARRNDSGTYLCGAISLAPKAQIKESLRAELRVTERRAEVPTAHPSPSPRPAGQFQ
- protocolDetails: BLI (Octet RED96), supernatant antibody captured on AHC sensor, human PD-1-his in solution, 1:1 fit
pKd: −log10 of the molar value.
property: pKd

binder	reportedResult
humanized antibody huE1A9C8A7-V8 (antibody, human IgG4 S228P, kappa, V domains shown, Human IgG4/kappa) VH: QVQLVQSGAEVVKPGASVKISCKASGYTFTDYVMHWVRQAPGQSLEWMGVISTYHIPAVYNQKFKGKATMTVDTSTSTVYLELSSLRSEDTAVYYCAREVYGDSYYFDVWGQGTTVTVSS VL: DIVMTQTPLSLPVTPGEPASISCRSSQSIVHSNGNTYLEWYLQKPGQSPQLLIYKVSNRFSGVPDRFSGSGSGTDFTLKISRVEAEDVGVYYCFQGSHVPYTFGGGTKVEIKR	8.95
humanized antibody huE1A9C8A7-V9 (antibody, human IgG4 S228P, kappa, V domains shown, Human IgG4/kappa) VH: QVQLVQSGAEVVKPGASVKISCKASGYTFTDYVMHWVRQAPGQSLEWIGVISTYHIPAVYNQKFKGRATMTVDTSTSTVYLELSSLRSEDTAVYYCAREVYGDSYYFDVWGQGTTVTVSS VL: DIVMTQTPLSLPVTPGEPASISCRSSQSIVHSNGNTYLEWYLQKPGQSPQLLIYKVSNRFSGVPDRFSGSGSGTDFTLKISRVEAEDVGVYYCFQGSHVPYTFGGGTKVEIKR	8.79
humanized antibody huE1A9C8A7-V11 (antibody, human IgG4 S228P, kappa, V domains shown, Human IgG4/kappa) VH: QVQLVQSGAEVVKPGASVKISCKASGYTFTDYVMHWVRQAPGQSLEWIGVISTYHIPAVYNQKFKGKATMTRDTSTSTVYLELSSLRSEDTAVYYCAREVYGDSYYFDVWGQGTTVTVSS VL: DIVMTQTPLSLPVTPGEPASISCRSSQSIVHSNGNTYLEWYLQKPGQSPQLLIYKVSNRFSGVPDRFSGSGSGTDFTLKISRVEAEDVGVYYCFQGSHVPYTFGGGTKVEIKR	8.82
humanized antibody huE1A9C8A7-V2 (antibody, human IgG4 S228P, kappa, V domains shown, Human IgG4/kappa) VH: QVQLVQSGAEVVKPGASVKISCKASGYTFTDYVMHWMRQAPGQSLEWIGVISTYHIPAVYNQKFKGKATMTVDKSTSTVYLELSSLRSEDTAVYYCAREVYGDSYYFDVWGQGTTVTVSS VL: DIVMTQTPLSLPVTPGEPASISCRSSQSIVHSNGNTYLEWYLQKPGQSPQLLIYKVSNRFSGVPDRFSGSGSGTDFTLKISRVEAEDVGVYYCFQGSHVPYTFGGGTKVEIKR	8.83
humanized antibody huE1A9C8A7-V1 (antibody, human IgG4 S228P, kappa, V domains shown, Human IgG4/kappa) VH: QVQLVQSGAEVVKPGASVKISCKASGYTFSDYVMHWMRQAPGQSLEWIGVISTYHIPAVYNQKFKGKATMTVDKSTSTVYLELSSLRSEDTAVYYCAREVYGDSYYFDVWGQGTTVTVSS VL: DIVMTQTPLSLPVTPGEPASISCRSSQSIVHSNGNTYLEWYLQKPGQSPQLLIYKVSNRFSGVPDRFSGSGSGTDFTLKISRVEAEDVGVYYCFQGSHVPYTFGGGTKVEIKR	8.81
